# Tested on: SARS-CoV-2 (hCoV-19/Egypt/NRC-03/2020)
# Recorded Conditions: SARS-CoV-2 / VERO-E6
Measurement Kind: SI = CC50/IC50
Answer with the value's number alone.

Compound	SI = CC50/IC50
COc1cc(/C=C2\CN(C(=O)c3cc(Cl)ccc3OC(C)=O)C/C(=C\c3cc(OC)c(OC)c(OC)c3)C2=O)cc(OC)c1OC [Compound 5o]	34.0
COc1ccc(/C=C2\CN(C(=O)c3ccccc3OC(C)=O)C/C(=C\c3ccc(OC)cc3)C2=O)cc1 [Compound 5f]	1.2

Entry CC(=O)Oc1ccccc1C(=O)N1C/C(=C\c2ccc(F)cc2)C(=O)/C(=C/c2ccc(F)cc2)C1 [Compound 5b] , system SARS-CoV-2 (hCoV-19/Egypt/NRC-03/2020): what SI = CC50/IC50 was measured? 22.7

Entry COc1ccc(/C=C2\CN(C(=O)c3ccccc3OC(C)=O)C/C(=C\c3ccc(OC)c(OC)c3)C2=O)cc1OC [Compound 5g] , system SARS-CoV-2 (hCoV-19/Egypt/NRC-03/2020): what SI = CC50/IC50 was measured? 57.5

Entry CCN(CCO)CCCC(C)Nc1ccnc2cc(Cl)ccc12 (stereo not drawn) [Hydroxychloroquine, reference compound] , system SARS-CoV-2 (hCoV-19/Egypt/NRC-03/2020): what SI = CC50/IC50 was measured? 9.7

Entry CC(=O)Oc1ccccc1C(=O)N1C/C(=C\c2ccc(C)cc2)C(=O)/C(=C/c2ccc(C)cc2)C1 [Compound 5e] , system SARS-CoV-2 (hCoV-19/Egypt/NRC-03/2020): what SI = CC50/IC50 was measured? 37.4

Entry CC(=O)Oc1ccc(Cl)cc1C(=O)N1C/C(=C\c2ccc(Br)cc2)C(=O)/C(=C/c2ccc(Br)cc2)C1 [Compound 5l] , system SARS-CoV-2 (hCoV-19/Egypt/NRC-03/2020): what SI = CC50/IC50 was measured? 11.1

Entry CC(=O)Oc1ccc(Cl)cc1C(=O)N1C/C(=C\c2cccs2)C(=O)/C(=C/c2cccs2)C1 [Compound 5p] , system SARS-CoV-2 (hCoV-19/Egypt/NRC-03/2020): what SI = CC50/IC50 was measured? 233.6

Entry CCN(CC)CCCC(C)Nc1ccnc2cc(Cl)ccc12 (stereo not drawn) [Chloroquine, reference compound] , system SARS-CoV-2 (hCoV-19/Egypt/NRC-03/2020): what SI = CC50/IC50 was measured? 15.1
